z-score values for the molecules below.
Test: fission yeast growth modulation, primary screen, strain 972, OD600, 24 h, no modulator (AID 1090);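 further: basal condition with compound alone and no growth modifier present; test concentration not given here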
Settings: S. pombe 972 growth, higher = more signal, called active from +8 up or from −8 down
// no unit, no text: just the number

Prompt: Param item = CC(C)C(CO)N1C(=O)[C@]2(C)C3C(=O)OCCC/C=C\[C@H]3OC23C=CCN(c2ccc(Cl)cc2)C(=O)[C@@H]13 (stereo partly drawn) ; retrieve measured z-score.
Completion: -1.14

Prompt: Now the molecule "CC(C)C(=C=CC[C@@H](O)c1ccccc1OCCO)C[C@@H](O)COCc1ccccc1"
Completion: -20.5

Prompt: Now the molecule "NCCCCCNC(=O)[C@@H]1C[C@@H]2C(=O)N[C@@H](CCCCN)C(=O)N2[C@@H]1c1cccc(OCCO)c1"
Completion: 0.212

Prompt: Now the molecule "COc1ccc([Si](C)(C)[C@@H]2[C@@H](CC(=O)N3CCC[C@H]3CO)O[C@]3(C(=O)N(Cc4ccc(N5C(=O)c6cccc7cccc5c67)cc4)c4ccccc43)[C@H]2C)cc1"
Completion: 0.378

Prompt: Now the molecule "C[C@]1(C(=O)O)c2ccccc2C(=O)N(Cc2ccccc2)[C@H]1c1ccc(CO)cc1"
Completion: 0.468

* * *

z-score values for the compounds below.
Test: modulators of HCV replicon luciferase signal, primary screen, HCV replication inhibitor project, Huh7 cells, luciferase reporter (AID 1109);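 further: huh7 hepatoma cells harbouring a luciferase neomycin HCV replicon reporter; luciferase luminescence as measure of HCV replicon replication; test concentration not given here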
Details: 48 h, higher = more signal

Prompt: Param item = "CCOC(=O)C1=CC[C@@H](c2cc(Cl)ccc2Cl)N(S(=O)(=O)c2ccc(C)cc2)[C@H]1c1ccc(OC)cc1" ; retrieve measured z-score.
Completion: -2.23

***
Prompt: Param item = "COc1ccc([Si](C)(C)[C@@H]2[C@@H](CCO)O[C@]3(C(=O)N(Cc4cccc(N5C(=O)c6ccccc6Oc6ccccc65)c4)c4ccccc43)[C@H]2C)cc1" ; retrieve measured z-score.
Completion: -4.56

* * *

Test: binders of probe aFGF10 on microarray, primary screen, stem cell growth factor project, biochemical, small-molecule microarray, fluorescence 635/667 (AID 1071);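 further: score merges 667 nm spot intensity and signal to noise from triplicate slides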
Details: higher = more signal
readout_label: composite z-score
// no unit, no text: just the number

Use these answered entries as a reference point.
Prompt: Param item = "COc1ccc(C#Cc2ccc3c(c2)[C@]2(C(=O)N3)[C@H](C(=O)N3CCc4cc(OC)c(OC)cc4C3)[C@H]3C(=O)O[C@H](c4ccccc4)[C@H](c4ccccc4)N3[C@@H]2c2ccc(O)cc2)cc1" ; retrieve measured composite z-score.
Completion: 0.282

Prompt: Now the compound "CCC[C@@H]1C[C@@]1(CCC)[C@@H](NP(=O)(c1ccccc1)c1ccccc1)c1ccc(Cl)cc1"
Completion: -0.387

Prompt: Now the compound CC(C)c1ccc(NN2C(C(O)c3ccco3)C=CC3C(=O)N(c4ccccc4)C(=O)C32)cc1 (configuration not stated)
Completion: 0.677

Prompt: Now the compound NC(=O)N1C(=O)C2C(C1=O)C1C=C(CCCO)C2C(c2cccs2)N1Cc1cc2c(cc1Br)OCO2 (configuration not stated)
Completion: 0.0276

Prompt: Now the compound "CN(C)CCCCNC(=O)[C@H]1C[C@H]2C(=O)N[C@@H](CCCCN(C)C)C(=O)N2[C@H]1c1cccc(OCCO)c1"
Completion: 1.02

Prompt: Now the compound "CO[C@H]1O[C@H](CO)[C@@H](OC(=O)Nc2ccc(C(F)(F)F)cc2)[C@H](OC(=O)Nc2ccc3c(c2)OCO3)[C@H]1OC(=O)Nc1ccc2c(c1)OCO2"
Completion: 0.794

***
Prompt: Param item = O=C1NC(=O)C2C1C=CC(C(O)c1ccc(Br)cc1)N2Nc1ccccn1 (configuration not stated) ; retrieve measured composite z-score.
Completion: 1.05
